Source: patent US20250215104A1

# koff listing for each entry below
system_tested: T1, human soluble urokinase plasminogen activator receptor (hsuPAR) (human, UniProt Q03405 23-303, limits assumed)
T1 construct: Target antigen of the off-rate screen; also called human suPAR; rhuPAR-His
assay_explanation: BLI (Octet) off-rate screen of scFv clones
# output: numeric value plus its unit

Solved cases (2 shown):
Data request: Please give the measured koff for this binder: suPAR_DB03_E03 (scFv, V domains shown, screened as scFv) VH: QVQLVQSGAEVKKPGASVKVSCKASGYTVTNYYMHWVRQAPGQGLEWMGWIDHENGNTIYDQKFQGRVTMTRDTSTSTVYMELSSLRSEDTAVYYCARGYDVDWFVYWGQGTLVTVSS VL: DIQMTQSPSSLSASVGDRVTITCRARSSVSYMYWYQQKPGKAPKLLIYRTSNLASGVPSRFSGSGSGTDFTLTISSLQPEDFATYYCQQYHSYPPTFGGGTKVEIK
Data returned: 0.00231 s⁻¹

Data request: Please give the measured koff for this binder: suPAR_DB03_D12 (scFv, V domains shown, screened as scFv) VH: QVQLVQSGAEVKKPGASVKVSCKASGYTFSNYYMHWVRQAPGQGLEWMGWIDPENGNTIYAQKFQGRVTMTRDTSTSTVYMELSSLRSEDTAVYYCARGYDVDWFVYWGQGTLVTVSS VL: DIQMTQSPSSLSASVGDRVTITCRARSSVSYMYWYQQKPGKAPKLLIYRTSNLQSGVPSRFSGSGSGTDFTLTISSLQPEDFATYYCQQYHSYPPTFGGGTKVEIK
Data returned: 0.0057 s⁻¹

Consider now this further binder.
Data request: Please give the measured koff for this binder: suPAR_DB03_A10 (scFv, V domains shown, screened as scFv) VH: QVQLVQSGAEVKKPGASVKVSCKASGYTFSNYYMHWVRQAPGQGLEWMGWIDHENGSTIYAQKFQGRVTMTRDTSTSTVYMELSSLRSEDTAVYYCARGYDVDWFVYWGQGTLVTVSS VL: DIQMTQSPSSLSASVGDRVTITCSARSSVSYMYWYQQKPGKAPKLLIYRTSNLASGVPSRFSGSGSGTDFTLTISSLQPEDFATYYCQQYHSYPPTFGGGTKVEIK
Data returned: 0.000838 s⁻¹
